Just for reference, the RNAGym collection of RNA variant scans (doi:10.1073/pnas.2313332121) is where these values come from.

B1: TPR t1 (parent)
chain: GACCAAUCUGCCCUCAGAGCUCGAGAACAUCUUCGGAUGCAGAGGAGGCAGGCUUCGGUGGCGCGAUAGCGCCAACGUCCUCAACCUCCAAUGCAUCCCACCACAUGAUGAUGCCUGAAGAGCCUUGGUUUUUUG

variants of: B1; assay: polymerase ribozyme fitness, log enrichment relative to wild type (log ratio); higher = more active; in vitro selection for triplet polymerase activity
readout-label: polymerase ribozyme fitness (log ratio)
Format: numeric value only, no unit, no commentary.

Past entries and their recorded results:
G45U C49A U59C C97G    -5.1
G42A C53G    -2.5
C3A U21A G71U    -2.65
G60C G69A    -4.01
C12A C40A C72A U130A    -2.02

Query string: Consider the variant C20A U106A C124A and give its measured polymerase ribozyme fitness (log ratio).
Result string: -1.85

Query string: # repeat for C73U A119U U126C
Result string: -0.929

Query string: # repeat for C13A G117A
Result string: -4.07

Query string: # repeat for G47C G48A C72U A91C C97U
Result string: -3.42

Query string: # repeat for G58C G60C A111U
Result string: -3.12

Query string: # repeat for A37U G39A
Result string: -1.34
